Taken from paper PMC12069442.

Experiment: Rat pharmacokinetic study of ziprasidone and ziprasidone sulfoxide with resveratrol or quercetin
Settings: male, Sprague-Dawley, plasma, po, 15 mg/kg, t1/2z, ziprasidone 15 mg/kg oral, control (corn oil), rats, n=6
assay_readout: half-life
# include the unit after the value

Prompt: What value of half-life has been recorded for this entry: O=C1Cc2cc(CCN3CCN(c4nsc5ccccc45)CC3)c(Cl)cc2N1
Completion: 8.64 h

* * *

Assay: Rat pharmacokinetic study of ziprasidone and ziprasidone sulfoxide with resveratrol or quercetin
Details: male, Sprague-Dawley, plasma, po, 15 mg/kg, Tmax, ziprasidone 15 mg/kg oral, control (corn oil), rats, n=6
assay_readout: Tmax (h)
# value in h; strip the unit string

Prompt: What value of Tmax has been recorded for this entry: O=C1Cc2cc(CCN3CCN(c4nsc5ccccc45)CC3)c(Cl)cc2N1
Completion: 4
